B1: Twister Ribozyme (parent)
chain: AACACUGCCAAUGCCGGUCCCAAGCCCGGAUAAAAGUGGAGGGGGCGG

variants of: B1; assay: self-cleavage, relative activity (ratio to wild type); higher = more cleavage; co-transcriptional
property label: self-cleavage

>>> print(df.to_string())
    variant_notation  result_number
 0         A40G G41A          0.141
 1         A30C G47A          0.577
 2         G17C G42C           0.11
 3         U12G G17A          0.577
 4          G7U G17C         0.0441
 5          U6A C25A         0.0712
 6           C3G A4U           0.13
 7         A34C A40C          0.122
 8         G38A A40G          0.131
 9          C5G C27A          0.103
10          U6G A33C          0.367
11         C19A G44A          0.685
12          A1C C15G          0.187
13          C8A G13C         0.0783
14          A4G C14G          0.276
15          U6G G47C          0.179
16          C5G A22C          0.571
17         A33U G36C          0.174
18         A32G G38C          0.892
19         U18C G39U          0.104
20          C5A C20G         0.0697
21           A2G C9U         0.0996
22         C15U C26U          0.117
23         G45U C46G           0.52
24         A30U A34U           0.85
25          C3G G39A         0.0984
26         U37G G47C          0.306
27         A30C G43C          0.103
28         A35U G43C          0.208
29         A10U G24C         0.0965
30          A2G C21U         0.0523
31         C26A G47C            0.2
32         A35U G38A          0.925
33         C26G G36U         0.0699
34         G29U C46G           0.88
35          A4C A23G         0.0448
36         C21U G42A         0.0823
